Please provide measured composite z-score for the entries that follow.
Test: binders of probe aHhip on microarray, primary screen, stem cell growth factor project, biochemical, small-molecule microarray, fluorescence 635/667 (AID 1087);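 note: score merges spot fluorescence at 667nm with spot signal to noise ratio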
Details: higher = more signal
Numbers only.

For orientation, consider the following solved cases.
*Q* I'd like to know its composite z-score. The molecule in question is C=CC[C@]1(C(=O)N2CCOCC2)N=C(c2ccc(OCCCO)cc2)O[C@H]1c1ccccc1N=[N+]=[N-]
*A* 0.0596

*Q* I'd like to know its composite z-score. The molecule in question is O=C1O[C@H](c2ccccc2)[C@H](c2ccccc2)N2[C@H]1[C@@H](C(=O)NC[C@H](O)c1ccccc1)[C@]1(C(=O)Nc3ccccc31)[C@H]2c1ccc(O)cc1
*A* 0.0542

Batch of 2 molecules: report composite z-score for each.
1. C=CCN1C(=O)[C@]2(Cc3ccccc3)N=C(c3ccc(OCCCO)cc3)O[C@@H]2c2ccccc21
2. COc1ccc([Si](C)(C)[C@H]2[C@H](CCO)O[C@@]3(C(=O)N(Cc4ccccc4)c4ccc(N5CCCCC5=O)cc43)[C@@H]2C)cc1

*A*
-0.0994
-0.0645
